Tested on: SARS-CoV
Type: functional, organism-based
details: Severe acute respiratory syndrome-related coronavirus, Calu-3, 96 h
recorded.metric: EC50 (µM)

                                smiles_repr  observed_measurement
0  Cn1cc(CNc2ccc3n(c2=O)C[C@H]2C[C@@H]3CN(Cc3ccccc3)C2)c(=O)n(C)c1=O                  0.12

###

test.summary: Cytotoxicity against human Calu-3 cells assessed as cell viability incubated for 96 hrs by MTT assay
Assay type: toxicity, cell-based
recorded.metric: CC50 at 96 h

>>> print(df.to_string())
                                smiles_repr  recorded_metric  observed_measurement
0  Cn1cc(CNc2ccc3n(c2=O)C[C@H]2C[C@@H]3CN(Cc3ccccc3)C2)c(=O)n(C)c1=O     CC50 at 96 h              > 100 µM

###

test.summary: in vitro
details: human, Calu-3 cells
recorded.metric: selectivity ratio

>>> print(df.to_string())
                                smiles_repr  observed_measurement
0  Cn1cc(CNc2ccc3n(c2=O)C[C@H]2C[C@@H]3CN(Cc3ccccc3)C2)c(=O)n(C)c1=O                  > 68

###

Tested on: SARS-CoV-2
Assay type: functional, organism-based
details: Severe acute respiratory syndrome coronavirus 2, Calu-3, 96 h
recorded.metric: EC50 (µM)

>>> print(df.to_string())
                                smiles_repr  study_target  recorded_metric  observed_measurement
0  Cn1cc(CNc2ccc3n(c2=O)C[C@H]2C[C@@H]3CN(Cc3ccccc3)C2)c(=O)n(C)c1=O    SARS-CoV-2             EC50                  1.47
